Known pKd of a selection of binders
Biological target: T1, RSV F subtype B, furin-cleaved ectodomain stabilized in the postfusion conformation (F ΔFP) (Respiratory syncytial virus subtype B)
T1 construct: extracellular domain; Trimeric soluble antigen; also called Postfusion subtype B
Experiment: BLI, IgG on AHQ sensor, 100 nM antigen
pKd: −log10 of the molar value.
readoutLabel: pKd

# binder, readoutLabel, reported
records = [
    ("ADI-18941 (antibody, V domains shown, full-length IgG from yeast) VH: EVQLVESAAEVKKPGESLKISCKGSGYSFASHWIGWVRQMPGKGLELMGFIYPGDSDTRYNPSFQGQVTISADKSISTAYLQWTRLKASDTAMYYCGQAVAGGEYFHHWGQGTLVTVSS VL: DIVMTQSPATLSVSPGERATLSCRASQSLGSDLAWYQQKPGQTPRLLIYDASTRATGIPARFSGSGSGTEFTLTISSLQSEDFAVYYCQHYNNWPRGFGQGTKVEIK", "pKd", 9.19),
    ("ADI-18922 (antibody, V domains shown, full-length IgG from yeast; also called Antibody Number 276; Ab # 276) VH: QVQLQESGPGRVKPSETLSLTCSVADGSISSGHYYWGWVRQPPGKGLEWIATIHDSGATYYNPSLQSRVTISVDTSKNQFSLKVNSVTAADTAVYYCASRRGSGWFFDSWGQGTLVTVSS VL: DIVLTQSPATLSVSPGERVTLSCRASHSVNYNLAWYQQKPGQAPRLLIYGSSTRATGLPARFSGSGSGTEFTLTISSLQSEDFAIYYCQQYNNWPPGGTFGQGTKVEIK", "pKd", 9.54),
    ("ADI-18885 (antibody, V domains shown, full-length IgG from yeast; also called Antibody Number 241; Ab # 241) VH: EVQLQESGPGLVKPLQTLSVTCSVSGGSISSGDNYWSWIRQRPGKGLEWIGYIYYSGTTYYNPSLKSRVTISADRSKNQFSLKMNSLSAADTAVYYCARDGGYDHIWGTHRYFALWGQGTLVTVSS VL: ETTLTQSPGTLSLSPGERATLSCRASQSVNSDYLAWYQQKLGQAPRLLIYGVSNRATGIPDRFTGSGSGTDFTLTISRLEPEDFAVYHCQQYGTSPWTFGQGTKVEIK", "pKd", 9.51),
    ("ADI-18942 (antibody, V domains shown, full-length IgG from yeast; also called Antibody Number 295; Ab # 295) VH: QVQLQESGPGRVKPSQTLSLTCTVSGVSVTINDYYWTWLRQSPGKGLEWIGNIYNSGSTYQNPSLQSRVTMSVDTAKNHFSLKLTSVTAADTAVYYCARDLGTANNYYFGMDVWGLGTTVTVSS VL: EIVMTQSPATLSLSPGERATLSCRASQSVSTYLAWYQQKPGQAPRLLIYNGSNRVTGTPARFSGSGSGTDFTLTISSVEPEDFAVYYCQQRSNWPPYTFGQGTKVEIK", "pKd", 9.59),
    ("ADI-18976 (antibody, V domains shown, full-length IgG from yeast) VH: EVQLVETGPGLVKPSETLSLTCTVSGDSISGYYWSWIRQSPGKGLEWIGYIYYRGSTDYNPSLKSRVTISVDTSKNQFSLKLSSVTAADTAVYYCARDNKHHDSGNYYAYFDHWGQGTLVTVSS VL: DIVMTQSPSSLSASVGDRVTITCRASQNINTFLNWYQHKPGKAPKLLIYGASRLQSGVPSRFTGSGSGTDFTLTISSLQPEDFATYSCQQSYTTRLTFGGGTKVEIK", "pKd", 9.68),
]
